Below, each of the compounds is paired with its reported efficacy in % value.
- Tested on: Spodoptera frugiperda
- assay notes: Spodoptera frugiperda - spray test (SPODFR)
- Assay type: in vivo
- protocol conditions: application rate of 500 g/ha; after 7 days; armyworm caterpillars on sprayed maize leaf discs; 100% = all caterpillars killed
Numeric answer plus unit only.

Reference set (3 entries):
Cc1cc(N(C(=O)c2cccnc2)C(=O)c2cccc(Cl)c2)nn1C(=O)c1cccc(Cl)c1 [Compound I-1-22] | 83%
O=C(Nc1ccn(-c2ncccc2Cl)n1)c1cccnc1 [Compound I-1-48] | 100%
CCCC(=O)n1nc(NC(=O)c2cccnc2)cc1C [Compound I-1-131] | 100%

Then this compound:
Task item: Reported efficacy in % for Cc1cc(NC(=O)c2cccnc2)nn1C(=O)C(C)C [Compound I-1-130] : what is it?
Reply: 100%
